test system: MALME-3M melanoma; experiment: NCI-60 one-dose screen, 48 h; settings: 10 µM unless noted
This is part of a sample that, as a whole, favours compounds with a hit. Of some 83,000 tested, about 20% had one in any assay. Calls of active or inactive are those of the source. The calls were made as follows: active = growth percent below 10; inactive = the rest.
Give your call using only these classes: TRUE (active), FALSE (inactive)

For `Cc1ccc(S(=O)(=O)C2=C3C(=C(c4ccccc4)c4ccccc43)CN(S(=O)(=O)c3ccc(C)cc3)C2)cc1` , what call appears in the results of this test?
FALSE

For CCN1C(=O)N(CC)C2C1NN=c1s/c(=C\c3cccnc3)c(=O)n12 (stereo not given) , what call appears in the results of this test?
FALSE

For `O=C1C(Cl)=C(Nc2ccccn2)C(=O)c2ccccc21` , what call appears in the results of this test?
TRUE

For COc1ccc(C2CC(c3ccc(OC)cc3OC)=NN2c2ccc(S(N)(=O)=O)cc2)cc1 (stereo not given) , what call appears in the results of this test?
FALSE

For CCCCCCCCC(C)OC(=O)c1nn(C(C)=O)c2ccccc12 (stereo not given) , what call appears in the results of this test?
FALSE
